- Assay Target: T1, human macrophage migration-inhibitory factor (MIF) (human, UniProt P14174 2-115, limits assumed, Alexa-Fluor 488 or Monolith NT-647 (MST-Red) label where so named)
- T1 construct: Biologically active recombinant MIF prepared as reported previously; also called Alexa-MIF; Alexa-488-MIF
- T1 sequence (P14174 2-115 limits assumed): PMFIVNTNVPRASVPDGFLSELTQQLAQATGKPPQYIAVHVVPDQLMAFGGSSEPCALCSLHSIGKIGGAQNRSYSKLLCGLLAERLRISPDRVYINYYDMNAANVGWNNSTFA
- Measurement Notes: fluorescence spectroscopic titration; row labelled msR4M-L5 but with the K-K-K linker
- Experimental: Peptides were dissolved and analyzed by MALDI-TOF-MS; ^{[a]}Peptides were synthesized with free amino-N-terminal and amidated C-terminal; ^{[b]}monoisotopic molar mass with an additional hydrogen [M + H]⁺; ^{[c]} App. […] Fluorescence spectroscopy. Fluorescence spectroscopic titrations were performed as described^{28, 32}. Fluorescence spectra were recorded using a JASCO FP-6500 fluorescence spectrophotometer. […] Apparent KD values (app. KD) were calculated assuming a 1/1 binding model³².
Where no end group is shown, it is not given here.
Measured Endpoint: Kd

WYFGNFLCKKKKDRFYPNDLW-NH2 (designed binder, not fully specified; printed as WYFGNFLCK-KKK-DRFYPNDLW, also called ngm-LK3; msR4M-K3) [msR4M-LK3 ([ECL1(102-110)]-K-K-K-[ECL2(187-195)])] yielded Kd of 0.03 to 0.04 µM

The measurements presented in this section are drawn from patent US20230242616A1.
